# System: HEK-293T
# Measurement Description: Multiplex assay against HEK293T
# Type: toxicity, cell-based
# Applied Conditions: human, 12 h, 1 µM, compound concentration 1 uM, replicate 2
Population Pyknosed Nuclei (%) values by entry

Structure Smiles String	Result Unit	Population Pyknosed Nuclei (%)
COc1cc(OC2CCN(C(C)=O)CC2)ccc1C(=O)N1CCC(N2C(=O)OCc3ccccc32)CC1	%	18
CC(F)(F)CN1CCOc2c(nn(-c3ccccc3Cl)c2-c2ccc(Cl)cc2)C1=O	%	16
CC(C)(C)c1ccc(CSc2cnn(C(C)(C)C)c(=O)c2Cl)cc1	%	10
Cc1cc(NC(=O)NCCN2CCC(O)(Cc3ccccc3)CC2)c2ccccc2n1	%	8
O=c1nc2[nH]c3ccccc3nc-2c(=O)[nH]1	%	15
